Task for the reader: assign each of the following compounds its reported IC50.
# TARGET_OR_TEST_SYSTEM: Recombinant purified human BTK (Homo sapiens (Human))
# METHOD_SUMMARY: BTK kinase inhibitory activity, ADP-Glo kinase assay kit (Promega V9071)
# MEASUREMENT_CONDITIONS: ATP 10 uM, 8 ng BTK per reaction, 1 hour at 30° C., chemiluminescence

Examples with answers:
- MOLECULE: "C=CC(=O)Nc1ccc(F)c(Oc2nc(Nc3ccsc3)nn3cccc23)c1"
  TARGET_OR_TEST_SYSTEM: "Recombinant purified human BTK (Homo sapiens (Human))"
  IC50: "66.6 nM"
- MOLECULE: "C=CC(=O)Nc1cccc(Oc2nc(Nc3cc(C)ns3)nn3cccc23)c1"
  TARGET_OR_TEST_SYSTEM: "Recombinant purified human BTK (Homo sapiens (Human))"
  IC50: "8.7 nM"

For the 5 compounds below, give their IC50 values.
1. C=CC(=O)Nc1cccc(Oc2nc(Nc3ccc(N4CCN(C)CC4)cc3)nn3cccc23)c1
2. C=CC(=O)Nc1ccc(F)c(Oc2nc(Nc3cnn(CC(C)C)c3)nn3cccc23)c1
3. C=CC(=O)Nc1cccc(Oc2nc(Nc3cnn(C4CC4)c3)nn3cccc23)c1
4. C=CC(=O)Nc1cccc(Oc2nc(Nc3ccc(OC)cc3)nn3cccc23)c1
5. C=CC(=O)Nc1ccc(Cl)c(Oc2nc(Nc3cnn(CC)c3)nn3cccc23)c1

22.7 nM
113 nM
107 nM
68.6 nM
269 nM

---

# TARGET_OR_TEST_SYSTEM: Recombinant purified human JAK3 (Homo sapiens (Human), UniProt P52333)
# Sequence (P52333 whole entry): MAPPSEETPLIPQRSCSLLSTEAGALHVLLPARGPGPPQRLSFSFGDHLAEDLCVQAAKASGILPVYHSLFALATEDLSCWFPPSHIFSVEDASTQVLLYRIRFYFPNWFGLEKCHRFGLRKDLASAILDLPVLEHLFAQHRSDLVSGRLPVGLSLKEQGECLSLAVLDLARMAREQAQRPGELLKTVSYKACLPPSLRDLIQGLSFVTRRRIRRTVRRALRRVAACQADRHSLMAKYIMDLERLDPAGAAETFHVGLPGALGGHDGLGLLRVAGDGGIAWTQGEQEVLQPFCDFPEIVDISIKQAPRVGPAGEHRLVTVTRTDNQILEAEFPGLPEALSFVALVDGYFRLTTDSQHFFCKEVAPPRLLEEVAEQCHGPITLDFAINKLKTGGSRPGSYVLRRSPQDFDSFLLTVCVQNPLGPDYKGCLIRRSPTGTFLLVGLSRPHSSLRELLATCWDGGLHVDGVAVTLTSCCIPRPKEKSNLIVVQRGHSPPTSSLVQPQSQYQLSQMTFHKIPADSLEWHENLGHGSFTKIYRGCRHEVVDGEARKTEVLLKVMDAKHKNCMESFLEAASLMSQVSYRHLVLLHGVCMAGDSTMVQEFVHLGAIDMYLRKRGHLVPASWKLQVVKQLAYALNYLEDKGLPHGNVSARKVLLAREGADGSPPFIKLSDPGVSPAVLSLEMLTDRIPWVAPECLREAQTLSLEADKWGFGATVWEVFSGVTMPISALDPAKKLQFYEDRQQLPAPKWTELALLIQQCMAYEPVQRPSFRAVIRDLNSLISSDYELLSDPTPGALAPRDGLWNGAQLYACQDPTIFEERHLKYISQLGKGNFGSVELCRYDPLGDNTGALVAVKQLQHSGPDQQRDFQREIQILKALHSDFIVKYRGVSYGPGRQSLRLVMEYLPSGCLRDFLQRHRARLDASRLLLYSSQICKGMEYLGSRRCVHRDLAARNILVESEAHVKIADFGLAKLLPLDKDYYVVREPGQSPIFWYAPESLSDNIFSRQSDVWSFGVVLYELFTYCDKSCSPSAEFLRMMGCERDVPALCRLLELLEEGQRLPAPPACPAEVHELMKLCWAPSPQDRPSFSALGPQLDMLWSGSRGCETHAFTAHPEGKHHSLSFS
# METHOD_SUMMARY: JAK3 kinase inhibitory activity, ADP-Glo kinase assay kit (Promega V9441)
# Assay type: biochemical
# MEASUREMENT_CONDITIONS: ATP 5 uM, 4 ng JAK3 per reaction, 1 hour at 30° C., chemiluminescence
pIC50: −log10 of the molar value.
y means recorded pIC50 is 9 or above; n means it is below 9.

The examples below pair each entry with its known result.
- MOLECULE: "C=CC(=O)Nc1ccc(F)c(Oc2nc(Nc3ccsc3)nn3cccc23)c1"
  LABEL: "n"
- MOLECULE: "C=CC(=O)Nc1cccc(Oc2nc(Nc3ccc(C(=O)N4CCOCC4)cc3)nn3cccc23)c1"
  LABEL: "n"
- MOLECULE: "C=CC(=O)Nc1ccc(F)c(Oc2nc(Nc3ccc4ncsc4c3)nn3cccc23)c1"
  LABEL: "n"
- MOLECULE: "CCC#CC(=O)Nc1ccc(F)c(Oc2nc(Nc3cnn(CC(F)F)c3)nn3cccc23)c1"
  LABEL: "n"
- MOLECULE: "C=CC(=O)Nc1ccc(F)c(Oc2nc(Nc3cnn(CC(C)C)c3)nn3cccc23)c1"
  LABEL: "n"
- MOLECULE: "C=CC(=O)Nc1cccc(Oc2nc(Nc3cc4n(n3)CCN(C)C4)nn3cccc23)c1"
  LABEL: "n"

Is the recorded value of pIC50 equal to or greater than 9 for this compound? `C=CC(=O)Nc1ccc(F)c(Oc2nc(Nc3ccc(N4CCOCC4)cc3)nn3cccc23)c1`
n

Is the recorded value of pIC50 equal to or greater than 9 for this compound? `C=CC(=O)Nc1ccc(F)c(Oc2nc(Nc3cnn(C(F)F)c3)nn3cccc23)c1`
n

Is the recorded value of pIC50 equal to or greater than 9 for this compound? `C=CC(=O)Nc1cccc(Oc2nc(Nc3ccc(CN(C)C)cc3)nn3cccc23)c1`
n

Is the recorded value of pIC50 equal to or greater than 9 for this compound? `C=CC(=O)Nc1cccc(Oc2nc(Nc3cnn(C4CC4)c3)nn3cccc23)c1`
n

Is the recorded value of pIC50 equal to or greater than 9 for this compound? `C=CC(=O)Nc1cccc(Oc2nc(Nc3ccc(C(C)C)cc3)nn3cccc23)c1`
n

Is the recorded value of pIC50 equal to or greater than 9 for this compound? `C=CC(=O)Nc1ccc(F)c(Oc2nc(Nc3cc(C)ns3)nn3cccc23)c1`
y

Is the recorded value of pIC50 equal to or greater than 9 for this compound? `C=CC(=O)Nc1ccc(F)c(Oc2nc(Nc3cnn(C4CCOCC4)c3)nn3cccc23)c1`
y

---

# TARGET_OR_TEST_SYSTEM: Recombinant purified human JAK3 (Homo sapiens (Human))
# METHOD_SUMMARY: JAK3 kinase inhibitory activity, ADP-Glo kinase assay kit (Promega V9441)
# MEASUREMENT_CONDITIONS: ATP 5 uM, 4 ng JAK3 per reaction, 1 hour at 30° C., chemiluminescence
Threshold 10 nM: IC50 strictly smaller gives MET, otherwise NOT MET.

The examples below pair each entry with its known result.
- MOLECULE: "C=CC(=O)Nc1ccc(F)c(Oc2nc(Nc3cnn(CCC)c3)nn3cccc23)c1"
  LABEL: "MET"
- MOLECULE: "C=CC(=O)Nc1ccc(F)c(Oc2nc(Nc3cnn(CCOC)c3)nn3cccc23)c1"
  LABEL: "MET"
- MOLECULE: "O=C(CCl)Nc1ccc(F)c(Oc2nc(Nc3cnn(CC(F)F)c3)nn3cccc23)c1"
  LABEL: "MET"

Lab note: confirm whether the reported IC50 for this compound is below 10 nM, equality not counting. compound: `C=CC(=O)Nc1cccc(Oc2nc(Nc3ccc(N(C)C)cc3)nn3cccc23)c1`
NOT MET

Lab note: confirm whether the reported IC50 for this compound is below 10 nM, equality not counting. compound: `C=CC(=O)Nc1cccc(Oc2nc(Nc3ccsc3)nn3cccc23)c1`
MET

Lab note: confirm whether the reported IC50 for this compound is below 10 nM, equality not counting. compound: `C=CC(=O)Nc1ccc(F)c(Oc2nc(Nc3ccc(-n4nc(C)cc4C)cc3)nn3cccc23)c1`
NOT MET

Lab note: confirm whether the reported IC50 for this compound is below 10 nM, equality not counting. compound: `C=CC(=O)Nc1ccc(F)c(Oc2nc(Nc3ccc(Oc4ccccc4)cc3)nn3cccc23)c1`
NOT MET

---

# TARGET_OR_TEST_SYSTEM: Recombinant purified human BTK (Homo sapiens (Human))
# METHOD_SUMMARY: BTK kinase inhibitory activity, ADP-Glo kinase assay kit (Promega V9071)
# MEASUREMENT_CONDITIONS: ATP 10 uM, 8 ng BTK per reaction, 1 hour at 30° C., chemiluminescence
Task for the reader: assign each of the following molecules its reported log10(IC50).
Could you please treat all values as log10 of IC50 in nM?

Examples with answers:
- MOLECULE: "CCn1cc(Nc2nc(Oc3cc(NC(=O)CCl)ccc3F)c3cccn3n2)cn1 [Example 43]"
  REPORTED_VALUE: 0.08
- MOLECULE: "O=C(CCl)Nc1ccc(F)c(Oc2nc(Nc3cnn(CC(F)F)c3)nn3cccc23)c1 [Example 41]"
  REPORTED_VALUE: 0.08
- MOLECULE: "C=CC(=O)Nc1cccc(Oc2nc(Nc3ccc(C(C)C)cc3)nn3cccc23)c1 [Example 16]"
  REPORTED_VALUE: 2.09

For the 5 molecules below, give their log10(IC50) values.
1. C=CC(=O)Nc1cccc(Oc2nc(Nc3ccc(N4CCOCC4)cc3)nn3cccc23)c1 [Example 22]
2. C=CC(=O)Nc1ccc(F)c(Oc2nc(Nc3cnn(C(C)C)c3)nn3cccc23)c1 [Example 36]
3. C=CC(=O)Nc1cccc(Oc2nc(Nc3ccn(C)n3)nn3cccc23)c1 [Example 20]
4. C=CC(=O)Nc1ccc(F)c(Oc2nc(Nc3ccc(Oc4ccccc4)cc3)nn3cccc23)c1 [Example 13]
5. C=CC(=O)Nc1ccc(F)c(Oc2nc(Nc3ccn(C)c3)nn3cccc23)c1 [Example 9]

1. 1.55
2. 0.64
3. 2.81
4. 2.79
5. 2.39

---

Task for the reader: assign each of the following compounds its reported log10 of IC50.
# TARGET_OR_TEST_SYSTEM: Recombinant purified human BTK (Homo sapiens (Human), UniProt Q06187)
# Sequence (Q06187 whole entry): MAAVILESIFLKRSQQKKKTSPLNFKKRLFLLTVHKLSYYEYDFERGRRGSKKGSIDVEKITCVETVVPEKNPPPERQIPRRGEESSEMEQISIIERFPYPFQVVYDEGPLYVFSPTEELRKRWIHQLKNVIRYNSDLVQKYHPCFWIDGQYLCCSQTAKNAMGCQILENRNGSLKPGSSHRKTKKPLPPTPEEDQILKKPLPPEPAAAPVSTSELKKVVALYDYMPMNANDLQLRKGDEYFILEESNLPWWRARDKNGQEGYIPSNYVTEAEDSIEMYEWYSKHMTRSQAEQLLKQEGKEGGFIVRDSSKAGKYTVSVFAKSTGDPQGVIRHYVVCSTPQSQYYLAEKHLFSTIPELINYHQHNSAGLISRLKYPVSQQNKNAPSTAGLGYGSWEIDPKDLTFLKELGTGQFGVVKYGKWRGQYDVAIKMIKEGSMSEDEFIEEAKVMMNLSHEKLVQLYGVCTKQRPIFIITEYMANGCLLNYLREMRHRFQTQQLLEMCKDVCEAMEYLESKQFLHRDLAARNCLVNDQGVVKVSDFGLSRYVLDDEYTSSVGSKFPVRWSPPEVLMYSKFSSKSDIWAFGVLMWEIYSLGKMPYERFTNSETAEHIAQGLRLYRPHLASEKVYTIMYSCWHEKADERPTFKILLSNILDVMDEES
# METHOD_SUMMARY: BTK kinase inhibitory activity, ADP-Glo kinase assay kit (Promega V9071)
# MEASUREMENT_CONDITIONS: ATP 10 uM, 8 ng BTK per reaction, 1 hour at 30° C., chemiluminescence
Could you please treat all values as log10 of IC50 in nM?

For the 2 compounds below, give their log10 of IC50 values.
1. C=CC(=O)Nc1ccc(F)c(Oc2nc(Nc3ccc(-n4nc(C)cc4C)cc3)nn3cccc23)c1
2. C=CC(=O)Nc1cccc(Oc2nc(Nc3cc4n(n3)CCN(C)C4)nn3cccc23)c1

1. 2.05
2. 2.22

For the 2 compounds below, give their log10 of IC50 values.
1. C=CC(=O)Nc1ccc(F)c(Oc2nc(Nc3cnn(C4CC4)c3)nn3cccc23)c1
2. C=CC(=O)Nc1cccc(Oc2nc(Nc3ccc(N(C)C)cc3)nn3cccc23)c1

1.13
1.78

For the 2 compounds below, give their log10 of IC50 values.
1. C=CC(=O)Nc1ccc(F)c(Oc2nc(Nc3ccc(OC)cc3)nn3cccc23)c1
2. C=CC(=O)Nc1ccc(F)c(Oc2nc(Nc3cccnc3)nn3cccc23)c1

1: 1.72; 2: 2.02

For the 7 compounds below, give their log10 of IC50 values.
1. C=CC(=O)Nc1ccc(F)c(Oc2nc(Nc3cnn(C)c3)nn3cccc23)c1
2. C=CC(=O)Nc1ccc(F)c(Oc2nc(Nc3ccc(N4CCOCC4)cc3)nn3cccc23)c1
3. C=CC(=O)Nc1ccc(F)c(Oc2nc(Nc3cnn(C4CCNCC4)c3)nn3cccc23)c1
4. C=CC(=O)Nc1ccc(F)c(Oc2nc(Nc3ccc(N4CCN(C)CC4)cc3)nn3cccc23)c1
5. C=CC(=O)Nc1ccc(F)c(Oc2nc(Nc3cnn(C4CCOCC4)c3)nn3cccc23)c1
6. C=CC(=O)Nc1cccc(Oc2nc(Nc3cnn(CC)c3)nn3cccc23)c1
7. C=CC(=O)Nc1cc(Oc2nc(Nc3cnn(CC)c3)nn3cccc23)ccc1C

1. 0.70
2. 1.44
3. 1.80
4. 0.90
5. 0.38
6. 1.00
7. 1.72

These entries and their values trace back to patent US11084823B2.
